# test-target: human plasma kallikrein (hPK) (Homo sapiens, UniProt P03952)
# test-method-notes: Enzyme inhibition assay, human plasma kallikrein
pKi: −log10 of the molar value. Numbered stars: 1 amine (or outer) side, 2 acyl side, 3 side chain; on linkers, the order of the positions; unused ones are H or OH. Bridge positions count the residues as written; N and C are the ends. Peptide text beside a SMILES is read from it. TBMB = c1c(C[*:1])cc(C[*:3])cc1C[*:2]
If the reported pKi equals or exceeds 7, assign yes. If not, assign no.

# count of solved cases: 2
molecule	test-target	label-class
CC(=O)N[C@H]1CSCc2cc3cc(c2)CSC[C@H](NC(=O)[C@H](CCCNC(=N)N)NC(=O)[C@H](C)NC(=O)[C@@H]2CCCN2C(=O)[C@H](Cc2c[nH]c4ccccc24)NC(=O)[C@H](CO)NC1=O)C(=O)N[C@@H](CC(C)C)C(=O)N[C@@H](Cc1c[nH]cn1)C(=O)N[C@@H](CCC(N)=O)C(=O)N[C@@H](CC(=O)O)C(=O)N[C@@H](CC(C)C)C(=O)N[C@H](C(N)=O)CSC3	human plasma kallikrein (hPK) (Homo sapiens, UniProt P03952)	yes
CC(=O)N[C@H]1CSCc2cc3cc(c2)CSC[C@H](NC(=O)[C@H](CCCNC(=N)N)NC(=O)[C@@H]2CCCN2C(=O)[C@H](CO)NC(=O)[C@H](C)NC(=O)[C@H](Cc2c[nH]c4ccccc24)NC1=O)C(=O)N[C@@H](CC(C)C)C(=O)N[C@@H](Cc1c[nH]cn1)C(=O)N[C@@H](CCC(N)=O)C(=O)N[C@@H](CC(=O)O)C(=O)N[C@@H](CC(C)C)C(=O)N[C@H](C(N)=O)CSC3 [Ac-(06-34-18) Scram2] (Ac-CWASPRCLHQDLC-NH2; linker 1-7-13 via TBMB)	human plasma kallikrein (hPK) (Homo sapiens, UniProt P03952)	no

Moving on to the next molecule.
Can `CC(=O)N[C@H]1CSCc2cc3cc(c2)CSC[C@H](NC(=O)[C@H](CCCNC(=N)N)NC(=O)[C@H](C)NC(=O)[C@@H]2CCCN2C(=O)[C@@H](Cc2c[nH]c4ccccc24)NC(=O)[C@H](CO)NC1=O)C(=O)N[C@@H](CC(C)C)C(=O)N[C@@H](Cc1c[nH]cn1)C(=O)N[C@@H](CCC(N)=O)C(=O)N[C@@H](CC(=O)O)C(=O)N[C@@H](CC(C)C)C(=O)N[C@H](C(N)=O)CSC3` be said to have pKi at or above 7?
no

* * *

# test-target: UniProtKB P00734
pIC50: −log10 of the molar value. Numbered stars: 1 amine (or outer) side, 2 acyl side, 3 side chain; on linkers, the order of the positions; unused ones are H or OH. Bridge positions count the residues as written; N and C are the ends. Peptide text beside a SMILES is read from it. TBMB = c1c(C[*:1])cc(C[*:3])cc1C[*:2]
What pIC50 was measured for each of the following?

compound	pIC50
CC(C)C[C@@H]1NC(=O)[C@@H]2CSCc3cc(cc(c3)CSC[C@@H](C(=O)N[C@@H](C)C(N)=O)NC(=O)[C@H](Cc3ccc(O)cc3)NC(=O)[C@H](CC(=O)O)NC(=O)[C@H](CCC(N)=O)NC(=O)[C@H](Cc3c[nH]cn3)NC1=O)CSC[C@H](NC(=O)[C@H](C)N)C(=O)N[C@@H](CO)C(=O)N[C@@H](Cc1c[nH]c3ccccc13)C(=O)N1CCC[C@H]1C(=O)N[C@@H](Cc1ccc(O)cc1)C(=O)N[C@@H](CCCNC(=N)N)C(=O)N2 [Peptide 06-61] (H-ACSWPYRCLHQDYCA-NH2; linker 2-8-14 via TBMB)	< 5.00

Below: the item to evaluate.
Supply measured pIC50 of CC(C)C[C@@H]1NC(=O)[C@H](CC(=O)O)NC(=O)[C@H](CCC(N)=O)NC(=O)[C@H](Cc2c[nH]cn2)NC(=O)[C@H](CC(N)=O)NC(=O)[C@@H]2CSCc3cc(cc(c3)CSC[C@@H](C(=O)N[C@@H](C)C(N)=O)NC1=O)CSC[C@H](NC(=O)[C@H](C)N)C(=O)N[C@@H](CO)C(=O)N[C@@H](Cc1c[nH]c3ccccc13)C(=O)N1CCC[C@H]1C(=O)N[C@@H](C)C(=O)N[C@@H](CCCNC(=N)N)C(=O)N2 [Peptide 06-57] (H-ACSWPARCNHQDLCA-NH2; linker 2-8-14 via TBMB) in your reply.
< 5.00
